ASSAYED_TARGET: TRPA1 receptor (Homo sapiens, UniProt O75762);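 for TRPA1 Pre-incubation: values above 100 mean more active than the control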
Construct: expressed in transfected cells; host or cells: HEK cell line
Sequence (O75762 whole entry): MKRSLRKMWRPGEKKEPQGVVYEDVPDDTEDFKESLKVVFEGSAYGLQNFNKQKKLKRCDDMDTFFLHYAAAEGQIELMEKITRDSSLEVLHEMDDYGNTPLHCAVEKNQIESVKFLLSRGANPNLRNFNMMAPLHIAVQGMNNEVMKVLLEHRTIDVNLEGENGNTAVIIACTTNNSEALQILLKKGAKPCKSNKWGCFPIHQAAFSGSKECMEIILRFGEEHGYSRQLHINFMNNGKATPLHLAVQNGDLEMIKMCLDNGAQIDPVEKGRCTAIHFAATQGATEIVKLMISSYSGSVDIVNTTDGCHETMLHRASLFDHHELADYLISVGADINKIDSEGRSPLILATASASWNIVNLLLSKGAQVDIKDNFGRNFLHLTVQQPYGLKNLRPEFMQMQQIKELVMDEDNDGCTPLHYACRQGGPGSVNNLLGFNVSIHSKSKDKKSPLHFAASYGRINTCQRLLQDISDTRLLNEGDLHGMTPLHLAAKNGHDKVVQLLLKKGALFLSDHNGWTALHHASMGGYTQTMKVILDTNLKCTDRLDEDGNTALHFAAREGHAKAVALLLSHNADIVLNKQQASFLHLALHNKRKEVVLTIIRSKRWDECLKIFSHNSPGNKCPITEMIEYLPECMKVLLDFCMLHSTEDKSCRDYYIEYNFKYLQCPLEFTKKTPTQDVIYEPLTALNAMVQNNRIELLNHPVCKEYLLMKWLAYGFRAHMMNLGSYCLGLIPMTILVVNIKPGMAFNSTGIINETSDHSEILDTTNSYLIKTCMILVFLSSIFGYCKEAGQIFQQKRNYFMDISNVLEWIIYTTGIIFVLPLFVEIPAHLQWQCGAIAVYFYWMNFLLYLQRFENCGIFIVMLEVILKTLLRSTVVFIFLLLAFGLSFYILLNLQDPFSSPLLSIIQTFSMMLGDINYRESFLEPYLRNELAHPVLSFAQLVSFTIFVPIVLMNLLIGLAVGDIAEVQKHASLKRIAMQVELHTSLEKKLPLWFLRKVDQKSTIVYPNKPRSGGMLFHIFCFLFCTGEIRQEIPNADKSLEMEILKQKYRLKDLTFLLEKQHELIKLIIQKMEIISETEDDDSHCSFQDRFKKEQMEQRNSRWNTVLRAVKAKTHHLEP
TEST_DESCRIPTION: cell-based
Set-up: dose or concentration left out as unconfirmed
MEASUREMENT_SETUP: HEK293; percentage of the control (allyl isothiocyanate) calcium count; material dissolved in DMSO at 100 micromolar; HEK cells with TRPA1; pre-incubation; read-out: TRPA1 Pre-incubation
MEASURE: activation (%)
Just the number please, in %, no unit attached.

Known activation results, listed for orientation:
1. CCCCCCOC(=O)CC [Hexyl Propionate] : 78.9
2. CCCC=O [Butyraldehyde] : 66.2
3. CCC(=O)OCc1ccccc1 [Benzyl Propionate] : 63

For Cc1coc2c1CCC(C)C2 (centres unmarked) , what is its reported activation?
84.8

Moving on to the next compound: O=Cc1ccccc1O [Salicylaldehyde]
62.5

Moving on to the next compound: CC1=C(O)C(=O)C(C)O1 (centres unmarked) [4-Hydroxy-2,5-Dimethyl-3(2H)-Furanone]
72

Moving on to the next compound: CC/C=C\CCOC(=O)CCC [cis-3-Hexenyl Butyrate]
87.9

Moving on to the next compound: CC(=O)c1ccccc1 [Acetophenone]
81.1

Moving on to the next compound: CCCCC(O)CC (centres unmarked) [Material 3-Heptanol, 3-Heptanol]
81.3

Moving on to the next compound: c1ccc2scnc2c1 [Benzothiazole]
81.5

Moving on to the next compound: CC(=O)OC1CCCCC1 [Cyclohexyl Acetate]
68.8

Moving on to the next compound: CCCC(=O)OCC [Ethyl Butyrate]
87

Moving on to the next compound: C=CC(C)(CCC=C(C)C)OC(C)=O (centres unmarked) [Linalyl Acetate]
77.2

Moving on to the next compound: O=C(c1ccccc1)c1ccccc1 [Benzophenone]
0

----------
Measured activation at 100 µM accompanies every entry in the list below.
ASSAYED_TARGET: TRPA1 receptor (Homo sapiens, UniProt O75762)
Construct: expressed in transfected cells; host or cells: HEK cell line
TEST_DESCRIPTION: cell-based
MEASUREMENT_SETUP: HEK293; percentage of the control (allyl isothiocyanate) calcium count; material dissolved in DMSO at 100 micromolar; HEK cells with TRPA1; direct addition; read-out: TRPA1 Direct addition
Just the number please, in %, no unit attached.

For `CCCCCCCCCCCC(C)=O` , what is its reported activation at 100 µM?
7.21

Moving on to the next compound: `CCc1ccccc1S`
0.34

Moving on to the next compound: `OCCCc1ccccc1`
-0.04

Moving on to the next compound: CC=CC(=O)C(C)CC (centres unmarked)
15.5

Moving on to the next compound: CC/C=C/C=C/C=O [Trans,trans-2,4-Heptadienal]
119

----------
Measured activation at 100 µM accompanies every entry in the list below.
ASSAYED_TARGET: TRPA1 receptor (Homo sapiens, UniProt O75762)
Construct: expressed in transfected cells; host or cells: HEK cell line
TEST_DESCRIPTION: cell-based
MEASUREMENT_SETUP: HEK293; percentage of the control (allyl isothiocyanate) calcium count; material dissolved in DMSO at 100 micromolar; HEK cells with TRPA1; direct addition; read-out: TRPA1 Direct addition
Where a name gives a salt, the structure may show the parent alone.
Just the number please, in %, no unit attached.

Known activation at 100 µM results, listed for orientation:
1) CC(=O)OC1CCCCC1 [Cyclohexyl Acetate] : -1.27
2) CCOCc1ccccc1 : -2.24
3) CC(C)=CCCC(C)CCOC=O (stereo not shown) [Citronellyl Formate] : -0.57
4) C=C1CCC2CC1C2(C)C (stereo not shown) : -6.02
5) CC(=O)OCCC(C)C [Isoamyl Acetate] : 0.07

What value of activation at 100 µM on TRPA1 receptor (Homo sapiens, UniProt O75762) does CC(C)C(=O)OCc1ccccc1 [Benzyl Isobutyrate] have?
-2.7

Moving on to the next compound: `COc1nccnc1C`
-0.83

Moving on to the next compound: CCCCC(=O)OCC [Ethyl Valerate]
-0.08

Moving on to the next compound: CC(C)C(=O)OCCc1ccccc1 [Phenylethyl Isobutyrate]
-3.56

----------
ASSAYED_TARGET: TRPA1 receptor (Homo sapiens, UniProt O75762)
Construct: expressed in transfected cells; host or cells: HEK cell line
TEST_DESCRIPTION: cell-based
MEASUREMENT_SETUP: HEK293; percentage of the control (allyl isothiocyanate) calcium count; material dissolved in DMSO at 100 micromolar; HEK cells with TRPA1; direct addition; read-out: TRPA1 Direct addition
MEASURE: activation at 100 µM (%)
Just the number please, in %, no unit attached.

Known activation at 100 µM results, listed for orientation:
1. CCCCCCCCCC(C)=O : 10.7
2. COC(=O)/C=C/c1ccccc1 [Methyl trans-Cinnamate] : -16.8
3. CSCCCO : -0.92
4. CC1=C(O)C(=O)OC1C (stereo not drawn) : 0.18
5. CC(=O)OCc1ccccc1 [Benzyl Acetate] : -0.31
6. O=Cc1ccccc1O : 0.01

For CC(=O)OC1CC(C)CCC1C(C)C (stereo not drawn) [Menthyl Acetate] , what is its reported activation at 100 µM?
-7.24

Moving on to the next compound: O=C1CCCCCCCCCCCC(=O)OCCO1 [Ethylene Brassylate]
-0.58

Moving on to the next compound: CCOC(=O)C(C)O (stereo not drawn) [Ethyl Lactate]
-0.14

Moving on to the next compound: CCCC(=O)OCc1ccccc1 [Benzyl Butyrate]
-3.01

Moving on to the next compound: CCC(C)COC(C)=O (stereo not drawn) [2-Methylbutyl Acetate]
-0.99

Moving on to the next compound: C=CC(C)(O)CCC=C(C)C (stereo not drawn)
-1.58

Moving on to the next compound: CCCCCCOC(=O)C(C)CC (stereo not drawn) [Hexyl-2-Methylbutyrate]
-0.38

Moving on to the next compound: `O=Cc1ccccc1`
-1.46

Moving on to the next compound: CCCOC(=O)c1ccc(O)cc1 [n-Propyl-4-hydroxybenzoate]
173

----------
Measured activation at 100 µM accompanies every entry in the list below.
ASSAYED_TARGET: TRPA1 receptor (Homo sapiens)
Construct: expressed in transfected cells; host or cells: HEK cell line
TEST_DESCRIPTION: cell-based
MEASUREMENT_SETUP: HEK293; percentage of the control (allyl isothiocyanate) calcium count; material dissolved in DMSO at 100 micromolar; HEK cells with TRPA1; direct addition; read-out: TRPA1 Direct addition
Just the number please, in %, no unit attached.

Known activation at 100 µM results, listed for orientation:
1) CCCC(=O)C(C)=O [2,3-Hexanedione] : -0.19
2) COc1cc(C)ccc1C(C)C [thymyl methyl ether] : -0.16

--- query ---
For CC(C)CC(=O)OC1CC2CCC1(C)C2(C)C (stereo not drawn) [Bornyl Isovalerate] , what is its reported activation at 100 µM?
-1.36

----------
ASSAYED_TARGET: TRPA1 receptor (Homo sapiens, UniProt O75762)
Construct: expressed in transfected cells; host or cells: HEK cell line
TEST_DESCRIPTION: cell-based
MEASURE: TRPA1 Direct addition (%)
Just the number please, in %, no unit attached.

1. O=C([O-])C(=O)[O-].[Zn+2] [Zinc Oxalate] : 40.18

What value of TRPA1 Direct addition on TRPA1 receptor (Homo sapiens, UniProt O75762) does O=S(=O)([O-])[O-].[Zn+2] [Zinc Sulfate] have?
29.79

Moving on to the next molecule: [O]=[Zn] [Zinc Oxide]
−3.73

Moving on to the next molecule: CC1=CC(=O)[N-]S(=O)(=O)O1.[K+] [Acesulfame K]
−0.12

----------
ASSAYED_TARGET: TRPA1 receptor (Homo sapiens)
Construct: expressed in transfected cells; host or cells: HEK cell line
TEST_DESCRIPTION: cell-based
MEASUREMENT_SETUP: HEK293; percentage of the control (allyl isothiocyanate) calcium count; material dissolved in DMSO at 100 micromolar; HEK cells with TRPA1; direct addition; read-out: TRPA1 Direct addition
MEASURE: activation at 100 µM (%)
Just the number please, in %, no unit attached.

Known activation at 100 µM results, listed for orientation:
1) CCCCCC/C=C/C=O [Trans-2-Nonenal] : 123
2) CC(=O)OC/C=C(\C)CCC=C(C)C [Geranyl Acetate] : 0.33
3) C=CCc1cc(OC)c(O)c(OC)c1 : 39.2
4) CCC(=O)OC/C=C(\C)CCC=C(C)C [Geranyl Propionate] : 0.09
5) OCCc1ccccc1 : -4.77

For `OC/C=C/c1ccccc1` , what is its reported activation at 100 µM?
-1.45

Moving on to the next molecule: CC1=C(O)C(=O)C(C)O1 (stereo not shown) [4-Hydroxy-2,5-Dimethyl-3(2H)-Furanone]
2.68

All figures here come from patent US9937115B2.
